- study system: 15-PGDH/HPGD (Homo sapiens (Human), UniProt P15428)
- Sequence (P15428 whole entry): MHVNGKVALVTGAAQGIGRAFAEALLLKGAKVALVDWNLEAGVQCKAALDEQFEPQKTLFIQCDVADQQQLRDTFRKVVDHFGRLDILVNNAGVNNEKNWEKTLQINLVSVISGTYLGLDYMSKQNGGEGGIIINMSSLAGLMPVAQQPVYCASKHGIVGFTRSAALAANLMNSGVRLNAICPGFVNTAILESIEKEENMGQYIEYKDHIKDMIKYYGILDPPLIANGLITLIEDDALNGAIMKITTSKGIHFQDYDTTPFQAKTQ
- test name: hPGDH inhibitor screening biochemical assay
- setup conditions: read-out: hPGDH: Average IC50
pIC50: −log10 of the molar value.
property: pIC50

Examples with answers:
COc1ccc(-n2nc(Cl)c3cc(C(=O)N4CCC(F)CC4)ccc32)cc1    6.00 to 7.00
CC(C)(C)c1ccc(NC(=O)c2cncc(-n3ccc4cc(C(=O)N5CCC(F)(F)CC5)cnc43)c2)cn1    > 7.00
Cn1cc(-c2cccc(Cl)c2)c2ccc(C(=O)N3CCCCC3)cc21    > 7.00
NC(=O)c1ccc(-n2ccc3cc(C(=O)N4CCC(F)CC4)cnc32)cn1    > 7.00
Cn1cc(-n2ccc3cc(C(=O)N4CCC(F)CC4)cnc32)cn1    > 7.00

Request: Entry COCCc1nc2cc(C(=O)N3CCC(F)CC3)cnc2n1-c1ccc(OC)cc1 : reported pIC50 = ?
Result: ≤ 6.00

Request: Entry COc1ccc(-n2cc(Cl)c3cc(C(=O)N4CCC(F)CC4)cnc32)cc1 : reported pIC50 = ?
Result: > 7.00

Request: Entry O=C(c1ccc2c(c1)ncn2-c1cccc(Cl)c1)N1CCC(F)(F)C1 : reported pIC50 = ?
Result: ≤ 6.00

Request: Entry O=C(c1cnc2c(c1)ncn2-c1cccc(OC(F)(F)F)c1)N1CCCCC1 : reported pIC50 = ?
Result: 6.00 to 7.00

Request: Entry O=C(c1cnc2c(ccn2-c2cccc(Cl)c2)c1)N1CCCCC1 : reported pIC50 = ?
Result: > 7.00

Request: Entry CC(C)(O)CCc1cc2cc(C(=O)N3CCC(F)(F)CC3)cnc2n1-c1ccc(C#N)cc1 : reported pIC50 = ?
Result: > 7.00

Request: Entry NC(=O)c1cncc(-n2ccc3cc(C(=O)N4CCCCC4)cnc32)c1 : reported pIC50 = ?
Result: > 7.00

Request: Entry COc1ccc(-n2c(CCC(C)(C)O)cc3cc(C(=O)N4CCCCC4)cnc32)cc1 : reported pIC50 = ?
Result: > 7.00

###

- test name: Liver microsome stability assay (MLM)
- Format: in vitro ADME
- setup conditions: mouse liver microsomes
property: MLM + NADPH (% remaining at 45 min) (%)

[A] CC1(C)NC(=O)N(c2ccc(-n3ccc4cc(C(=O)N5CCC(F)(F)CC5)cnc43)cn2)C1=O
[B] O=C(c1cnc2c(ccn2-c2cncc(-c3n[nH]c(C4CC4)n3)c2)c1)N1CCC(F)(F)CC1
Request: Param metric = MLM + NADPH (% remaining at 45 min); output whichever of A , B has the minimum value. Write the label of whichever entry you select.
Result: B

###

- study system: 15-PGDH/HPGD (Homo sapiens (Human), UniProt P15428)
- test name: hPGDH inhibitor screening biochemical assay
- setup conditions: read-out: hPGDH: Average IC50
property: IC50

Examples with answers:
O=C(NC1CCS(=O)(=O)CC1)c1cc(Cl)cc(-n2ccc3cc(C(=O)N4CCC(F)(F)CC4)cnc32)c1    < 100 nM
O=C(NC1CNC1)c1ccc(-n2ccc3cc(C(=O)N4CCC(F)(F)CC4)cnc32)cc1 [MF-DH-420]    < 100 nM
NC[C@@H]1CN(c2ccc(-n3ccc4cc(C(=O)N5CCC(F)(F)CC5)cnc43)cn2)C(=O)O1 [MF-DH-478]    < 100 nM
O=C(NC1(C(=O)O)CC1)c1ccc(-n2ccc3cc(C(=O)N4CCC(F)(F)CC4)cnc32)cn1 [MF-DH-430]    < 100 nM
O=C(c1cnc2c(c1)ncn2-c1ccc(OC(F)F)cc1)N1CCC(F)CC1 [MF-DH-222]    100 to 1000 nM

Please examine the following record next.
Request: Write down the reported IC50 of O=C(c1cnc2c(c1)ncn2-c1cccc(OC(F)F)c1)N1CCCCC1 [MF-DH-229] , test system: 15-PGDH/HPGD (Homo sapiens (Human), UniProt P15428).
Result: 100 to 1000 nM

###

- study system: 15-PGDH/HPGD (Homo sapiens (Human), UniProt P15428)
- test name: hPGDH inhibitor screening biochemical assay
- setup conditions: read-out: hPGDH: Average IC50
Measured IC50 by item

Request: Entry O=C(c1cnc2c(c1)ncn2-c1cccc(OC(F)F)c1)N1CCC(F)CC1 : reported IC50 = ?
Result: 100 to 1000 nM

Request: Entry O=C(c1cnc2c(ccn2-c2cnccn2)c1)N1CCC(F)CC1 : reported IC50 = ?
Result: < 100 nM

Request: Entry O=C(c1cnc2c(ccn2-c2ccc(O)nc2)c1)N1CCCCC1 : reported IC50 = ?
Result: < 100 nM

###

Measured IC50 by item
- study system: 15-PGDH/HPGD (Homo sapiens (Human))
- test name: hPGDH inhibitor screening biochemical assay
- setup conditions: read-out: hPGDH: Average IC50

CCn1cnc(-n2ccc3cc(C(=O)N4CCCCC4)cnc32)c1 [MF-PGDH-073]    100 to 1000 nM
O=C(O)c1ccc(-n2ccc3cc(C(=O)N4CCCCC4)cnc32)cc1 [MF-DH-433]    < 100 nM
CC(C)(C)C(=O)NCCNC(=O)c1ccc(-n2ccc3cc(C(=O)N4CCC(F)(F)CC4)cnc32)cc1 [MF-DH-403]    < 100 nM
CCC(CC)NC(=O)c1cncc(-n2ccc3cc(C(=O)N4CCC(F)(F)CC4)cnc32)c1 [MF-DH-407]    < 100 nM
N#Cc1ccc(-n2ccc3nc(C(=O)N4CCC(F)CC4)ccc32)cc1 [MF-DH-462]    ≥ 1000 nM

Request: Entry CCC(CC)n1cnc2cc(C(=O)N3CCC(F)CC3)cnc21 [MF-DH-201] : reported IC50 = ?
Result: ≥ 1000 nM

Request: Entry CN(C)C(=O)c1cncc(-n2ccc3cc(C(=O)N4CCCCC4)cnc32)c1 [MF-DH-363] : reported IC50 = ?
Result: < 100 nM

Request: Entry O=C(c1cnc2c(ccn2-c2cc(Cl)cc(C(=O)N3CCS(=O)(=O)CC3)c2)c1)N1CCC(F)(F)CC1 : reported IC50 = ?
Result: < 100 nM

Request: Entry O=C(c1cnc2c(ccn2-c2ccc(O)nc2)c1)N1CCC(F)CC1 [MF-DH-133] : reported IC50 = ?
Result: < 100 nM

Request: Entry NC(=O)c1cncc(-n2ccc3cc(C(=O)N4CCC(F)CC4)cnc32)c1 [MF-DH-351] : reported IC50 = ?
Result: < 100 nM

###

- test name: Liver microsome stability assay (MLM)
- Type: in vitro ADME
- setup conditions: mouse liver microsomes
property: MLM + NADPH (% remaining at 45 min) (%)

O=C(Nc1cncc(-n2ccc3cc(C(=O)N4CCC(F)(F)CC4)cnc32)c1)c1ccno1    68
NC(=O)c1ccc(-n2cc(Cl)c3cc(C(=O)N4CCC(F)CC4)cnc32)cc1    26
CC(C)(C)c1ccc(NC(=O)c2cncc(-n3ccc4cc(C(=O)N5CCC(F)(F)CC5)cnc43)c2)cn1    38

[1] O=C(c1cnc2c(ccn2-c2ccc(-c3nnc(C(F)(F)F)[nH]3)nc2)c1)N1CCC(F)(F)CC1
[2] CC(C)(C)C(=O)NCCNC(=O)c1ccc(-n2ccc3cc(C(=O)N4CCC(F)(F)CC4)cnc32)cc1
Request: Would you let me know which has the greater MLM + NADPH (% remaining at 45 min) value, 1 or 2 ? Write the label of whichever entry you select.
Result: 1
(1: 89%, 2: 45%)

[A] NC(=O)c1ccc(-n2cc(Cl)c3cc(C(=O)N4CCCCC4)cnc32)cc1
[B] O=C(c1cnc2c(ccn2-c2ccc3[nH]ncc3c2)c1)N1CCC(F)(F)CC1
Request: Param metric = MLM + NADPH (% remaining at 45 min); output whichever of A , B has the minimum value. Write the label of whichever entry you select.
Result: B

###

- study system: 15-PGDH/HPGD (Homo sapiens (Human))
- test name: hPGDH inhibitor screening biochemical assay
- setup conditions: read-out: hPGDH: Average IC50
pIC50: −log10 of the molar value.
property: pIC50

Examples with answers:
O=C(Nc1ccn(C2CC2)n1)c1cncc(-n2ccc3cc(C(=O)N4CCC(F)(F)CC4)cnc32)c1 [MF-DH-500]    > 7.00
O=C(c1ccc2c(c1)ncn2-c1cccc(Cl)c1)N1CC2CCC(C2)C1 [MF-PGDH-018]    > 7.00
Cc1nc2c(ccn2-c2cnccn2)cc1C(=O)N1CCC(F)CC1 [MF-DH-148]    ≤ 6.00
O=C(Nc1cncc(-n2ccc3cc(C(=O)N4CCC(F)(F)CC4)cnc32)c1)c1ccno1 [MF-DH-458]    > 7.00

Request: Write down the reported pIC50 of O=C(c1cnc2c(ccn2-c2cccc(CO)c2)c1)N1CCCCC1 [MF-DH-308] , test system: 15-PGDH/HPGD (Homo sapiens (Human)).
Result: > 7.00

Request: Write down the reported pIC50 of Cc1cn(-c2cnccn2)c2ccc(C(=O)N3CCC(F)CC3)cc12 [MF-DH-180] , test system: 15-PGDH/HPGD (Homo sapiens (Human)).
Result: 6.00 to 7.00
